- TARGET_OF_ASSAY: PDE10A (Homo sapiens (Human))
- ASSAY_INFO: Measurement of PDE activity (recombinant PDE, cAMP HTRF)
- TEST_SETTINGS: 20 nM cyclic nucleotide substrate, 60 minutes at 29 C
pIC50: −log10 of the molar value.
MEASURED_ENDPOINT: pIC50

* CCC(CC)n1cc(C(=O)NCc2csc(C)n2)c2cc(OC)c(OC)cc2c1=O [Example 248] | 6.70 to 7.00

Given item CCC(CC)n1cc(C(=O)NC2COc3ccccc32)c2cc(OC)c(OC)cc2c1=O (centres unmarked) [Example 194] , the value recorded as its pIC50 is > 7.00

Given item CCn1cc(C(=O)NC2CCc3ccc(F)cc32)c2cc(OC)c(OC)cc2c1=O (centres unmarked) [Example 171] , the value recorded as its pIC50 is 6.30 to 6.70

Given item CCC(CC)n1cc(C(=O)N[C@H]2CCc3ccccc32)c2cc(OC)c(OC)cc2c1=O [Example 192] , the value recorded as its pIC50 is > 7.00

* * *

- ASSAY_INFO: Determination of the microsomal half-life / microsomal clearance, rat liver microsomes
- Format: in vitro ADME
- TEST_SETTINGS: 0.5 μM test substance, 0.25 mg of microsomal protein/ml, pH 7.4, 37° C.
- Procedure: b) Determination of the Microsomal Half-Life: The metabolic stability of the compounds of the invention was determined in the following assay. The test substances were incubated in a concentration of 0.5 μM as follows: 0.5 μM test substance are preincubated together with liver microsomes from different species (from rat, human or other species) (0.25 mg of microsomal protein/ml) in 0.05 M potassium phosphate buffer of pH 7.4 in microtiter plates at 37° C. for 5 min. […]
MEASURED_ENDPOINT: Rat mCl

- CCCCNC(=O)c1cn(CC)c(=O)c2cc(OC)c(OCCc3ccc4ccccc4n3)cc12 [Example 136]: ∘ (>220 μl min^−1 mg^−1)
- CCC(CC)n1cc(C(=O)NCc2occc2C)c2cc(OC)c(OC)cc2c1=O [Example 267]: ∘ (>220 μl min^−1 mg^−1)

* * *

- ASSAY_INFO: Determination of the microsomal half-life / microsomal clearance, human liver microsomes
- Format: in vitro ADME
- TEST_SETTINGS: 0.5 μM test substance, 0.25 mg of microsomal protein/ml, pH 7.4, 37° C.
MEASURED_ENDPOINT: Human mCl

* CCC(CC)n1cc(C(=O)NC2CCc3ccc(OC)cc32)c2cc(OC)c(OC)cc2c1=O (centres unmarked) | ∘ (>220 μl min^−1 mg^−1)
* CCC(C)n1cc(C(=O)NC2CCc3ccccc32)c2cc(OC)c(OC)cc2c1=O (centres unmarked) | ∘ (>220 μl min^−1 mg^−1)

* * *

- ASSAY_INFO: Determination of the microsomal half-life / microsomal clearance, human liver microsomes
- Format: in vitro ADME
- TEST_SETTINGS: 0.5 μM test substance, 0.25 mg of microsomal protein/ml, pH 7.4, 37° C.
MEASURED_ENDPOINT: Human mCl

* CCC(CC)n1cc(C(=O)N[C@H]2CCc3ccccc32)c2cc(OC)c(OC)cc2c1=O [Example 192] | ∘ (>220 μl min^−1 mg^−1)
* CCC(CC)n1cc(C(=O)NCc2ccccc2S(=O)(=O)N2CCOCC2)c2cc(OC)c(OC)cc2c1=O [Example 202] | ∘ (>220 μl min^−1 mg^−1)

* * *

- TARGET_OF_ASSAY: PDE10A (Homo sapiens (Human))
- ASSAY_INFO: Measurement of PDE activity (recombinant PDE, cAMP HTRF)
- TEST_SETTINGS: 20 nM cyclic nucleotide substrate, 60 minutes at 29 C
Listing of entries alongside the reported IC50.

* CCn1cc(C(=O)NCc2ccc(C)cc2F)c2cc(OC)c(OC)cc2c1=O [Example 273] | 200 to 500 nM
* CCn1cc(C(=O)NCc2ccc(C)cc2OCCOC)c2cc(OC)c(OC)cc2c1=O [Example 293] | 200 to 500 nM
* CCC(CC)n1cc(C(=O)NC2CCc3c(Cl)cccc32)c2cc(OC)c(OC)cc2c1=O (centres unmarked) [Example 265] | 200 to 500 nM
* CCn1cc(C(=O)NCc2csc(C)n2)c2cc(OC)c(OC)cc2c1=O [Example 316] | 200 to 500 nM
* CCn1cc(C(=O)NCc2ccc(C)cc2OC(C)C)c2cc(OC)c(OC)cc2c1=O [Example 302] | 200 to 500 nM

# IC50 measured on PDE10A (Homo sapiens (Human)) for item CCn1cc(C(=O)NCc2cc(C)cs2)c2cc(OC)c(OC)cc2c1=O [Example 317] = 100 to 200 nM

# IC50 measured on PDE10A (Homo sapiens (Human)) for item CCn1cc(C(=O)NCc2ccc(C3CC3)cc2)c2cc(OC)c(OC)cc2c1=O [Example 318] = 200 to 500 nM

* * *

- TARGET_OF_ASSAY: PDE10A (Homo sapiens (Human), UniProt Q9Y233)
- Sequence (Q9Y233 whole entry, species assumed): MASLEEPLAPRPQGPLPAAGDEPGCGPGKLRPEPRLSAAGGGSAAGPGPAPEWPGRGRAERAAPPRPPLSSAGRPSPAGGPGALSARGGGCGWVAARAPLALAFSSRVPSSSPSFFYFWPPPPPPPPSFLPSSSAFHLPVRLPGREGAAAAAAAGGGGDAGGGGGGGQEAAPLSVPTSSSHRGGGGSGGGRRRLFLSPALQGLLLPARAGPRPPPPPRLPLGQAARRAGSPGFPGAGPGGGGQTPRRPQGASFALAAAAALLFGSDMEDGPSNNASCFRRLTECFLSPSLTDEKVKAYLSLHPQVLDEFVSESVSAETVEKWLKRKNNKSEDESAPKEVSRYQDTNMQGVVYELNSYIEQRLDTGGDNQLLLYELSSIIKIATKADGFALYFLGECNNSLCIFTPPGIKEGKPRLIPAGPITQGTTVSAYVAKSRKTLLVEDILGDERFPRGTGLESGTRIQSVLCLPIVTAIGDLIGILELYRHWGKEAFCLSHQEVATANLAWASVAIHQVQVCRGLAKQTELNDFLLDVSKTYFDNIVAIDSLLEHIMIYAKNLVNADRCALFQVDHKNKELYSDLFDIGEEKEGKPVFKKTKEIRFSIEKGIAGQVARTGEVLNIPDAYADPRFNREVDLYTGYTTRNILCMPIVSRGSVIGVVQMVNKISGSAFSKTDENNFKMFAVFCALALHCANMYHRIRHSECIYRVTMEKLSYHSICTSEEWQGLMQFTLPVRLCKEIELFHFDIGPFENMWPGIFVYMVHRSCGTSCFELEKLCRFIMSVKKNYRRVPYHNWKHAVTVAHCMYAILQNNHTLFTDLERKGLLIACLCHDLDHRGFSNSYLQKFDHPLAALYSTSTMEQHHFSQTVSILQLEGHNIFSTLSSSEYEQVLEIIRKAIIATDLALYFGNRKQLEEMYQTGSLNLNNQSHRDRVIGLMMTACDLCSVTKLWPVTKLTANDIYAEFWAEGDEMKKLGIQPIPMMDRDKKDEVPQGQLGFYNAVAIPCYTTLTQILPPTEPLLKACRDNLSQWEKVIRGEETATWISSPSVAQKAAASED
- ASSAY_INFO: Measurement of PDE activity (recombinant PDE, cAMP HTRF)
- TEST_SETTINGS: 20 nM cyclic nucleotide substrate, 60 minutes at 29 C
pIC50: −log10 of the molar value.
Listing of entries alongside the reported pIC50.

Given item CCc1ccc(CNC(=O)c2cn(CC)c(=O)c3cc(OC)c(OC)cc23)cc1 , the value recorded as its pIC50 is 6.30 to 6.70

Given item CCn1cc(C(=O)NCc2ccc(C)cc2OC(C)(C)C)c2cc(OC)c(OC)cc2c1=O , the value recorded as its pIC50 is 6.30 to 6.70

Given item CCC(CC)n1cc(C(=O)NC2CCc3cc(C)ccc32)c2cc(OC)c(OC)cc2c1=O (stereo not drawn) , the value recorded as its pIC50 is > 7.00

Given item CCn1cc(C(=O)NCc2ccccc2)c2cc(OC)c(OC)cc2c1=O , the value recorded as its pIC50 is 6.70 to 7.00

Given item CCn1cc(C(=O)NCC2CCCCC2)c2cc(OC)c(OC)cc2c1=O , the value recorded as its pIC50 is 6.30 to 6.70

Given item CCn1cc(C(=O)NCc2ccccc2Cl)c2cc(OC)c(OC)cc2c1=O , the value recorded as its pIC50 is 6.30 to 6.70

* * *

Listing of entries alongside the reported pIC50.
- TARGET_OF_ASSAY: PDE10A (Homo sapiens (Human))
- ASSAY_INFO: Measurement of PDE activity (recombinant PDE, cAMP HTRF)
- TEST_SETTINGS: 20 nM cyclic nucleotide substrate, 60 minutes at 29 C
- Protocol: a) Measurement of PDE Activity The recombinant PDE proteins are used in in vitro enzymatic reaction for measurement of PDE activity. These recombinant proteins, including PDE10A (human, rat and mouse PDE10) and isoforms of PDEs 1, 3, 4, and 5, were purchased from commercial vendor BPS Bioscience. The enzymatic activity of PDEs was determined by cAMP measurement kit from CisBio (IBA) using HTRF technology. […]
pIC50: −log10 of the molar value.

Given item CCC(CC)n1cc(C(=O)NCc2cc(C)on2)c2cc(OC)c(OC)cc2c1=O , the value recorded as its pIC50 is 6.30 to 6.70

Given item CCC(CC)n1cc(C(=O)NCc2ccccc2S(=O)(=O)N2CCOCC2)c2cc(OC)c(OC)cc2c1=O , the value recorded as its pIC50 is > 7.00

Given item CCC(CC)n1cc(C(=O)NCc2ccccc2S(=O)(=O)N2CCN(C)CC2)c2cc(OC)c(OC)cc2c1=O , the value recorded as its pIC50 is > 7.00

Given item CCn1nc(C(=O)NC2CCc3ncccc32)c2cc(OC)c(OC)cc2c1=O (stereo not shown) , the value recorded as its pIC50 is > 7.00

Given item CCn1cc(C(=O)NCc2cccc(Cl)c2)c2cc(OC)c(OC)cc2c1=O , the value recorded as its pIC50 is 6.70 to 7.00

Given item CCn1cc(C(=O)NCc2ccc(C)cc2OCC2CC2)c2cc(OC)c(OC)cc2c1=O , the value recorded as its pIC50 is 6.30 to 6.70

Given item CCC(CC)n1cc(C(=O)NC2CCc3ccccc32)c2cc(OC)c(OC)cc2c1=O (stereo not shown) , the value recorded as its pIC50 is > 7.00

Given item CCn1cc(C(=O)NC2CCc3sccc32)c2cc(OC)c(OC)cc2c1=O (single isomer, unassigned; (-)) [Example 205] , the value recorded as its pIC50 is 6.30 to 6.70

Given item CCc1nc(CNC(=O)c2cn(C(CC)CC)c(=O)c3cc(OC)c(OC)cc23)cs1 , the value recorded as its pIC50 is 6.30 to 6.70

Given item CCn1cc(C(=O)NCc2ccc(C)cc2OC)c2cc(OC)c(OC)cc2c1=O , the value recorded as its pIC50 is 6.30 to 6.70
